# target_entity: Pyruvate kinase PKM (Homo sapiens)
# Sequence (P14618 whole entry): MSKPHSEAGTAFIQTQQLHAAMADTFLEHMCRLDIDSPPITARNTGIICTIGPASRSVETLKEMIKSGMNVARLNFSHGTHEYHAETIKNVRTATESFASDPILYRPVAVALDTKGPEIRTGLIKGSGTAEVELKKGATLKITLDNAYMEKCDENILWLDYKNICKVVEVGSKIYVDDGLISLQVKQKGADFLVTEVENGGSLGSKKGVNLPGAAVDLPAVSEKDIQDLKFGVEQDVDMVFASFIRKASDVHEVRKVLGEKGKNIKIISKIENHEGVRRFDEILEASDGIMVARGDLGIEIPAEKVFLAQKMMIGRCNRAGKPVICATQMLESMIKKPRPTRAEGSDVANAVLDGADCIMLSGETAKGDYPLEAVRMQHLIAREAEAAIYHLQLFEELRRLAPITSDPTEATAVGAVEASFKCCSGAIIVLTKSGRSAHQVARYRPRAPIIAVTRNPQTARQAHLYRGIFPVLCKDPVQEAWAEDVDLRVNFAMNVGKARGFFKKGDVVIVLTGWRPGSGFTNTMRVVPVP
# protocol: Inhibition of recombinant human N-terminal His6/SUMO-tagged PKM2 expressed in Escherichia coli BL21 using PEP as substrate incubated for 30 mins in presence of ADP by spectrophotometric based LDH enzyme coupled assay
Quick reference for pIC50 among some compounds
Here pIC50 is given on a logarithmic scale as minus log10 of the concentration in mol/L.

- smiles_representation: "CC(C)=CC[C@@H](O)C1=CC(=O)c2c(O)ccc(O)c2C1=O"
  target_entity: "Pyruvate kinase PKM (Homo sapiens)"
  pIC50: 6.30
- smiles_representation: "Cc1ccc(C)n1-c1ccc(O)c(C(=O)O)c1"
  target_entity: "Pyruvate kinase PKM (Homo sapiens)"
  pIC50: 4.90

# compound O=c1cc(-c2ccc(O)cc2)oc2cc(O)c(O)c(O)c12 ; its pIC50 = 4.90
